# Assay remarks: Therapeutic ratio of IC50 for HEK293 cells to IC50 for Plasmodium falciparum 3D7
# Assay type: cell-based
# Run parameters: human, HEK293 cells versus Plasmodium falciparum 3D7; read-out: Ratio IC50
Measurement kind: selectivity ratio

Below, each entry is followed by its recorded selectivity ratio result.
C[C@@H]1CC[C@H]2[C@@H](C)C(=O)O[C@@H]3O[C@@]4(C)CC[C@@H]1[C@]32OO4; > 10000
COc1ccc(C[C@H](N)C(=O)N[C@H]2[C@@H](O)[C@H](n3cnc4c(N(C)C)ncnc43)O[C@@H]2CO)cc1; 6
Cn1cc(NC(=O)c2cc(NC(=O)c3ccc(/C=C/c4nc5ccccc5o4)cc3)cn2C)cc1C(=O)NCCN1CCOCC1; > 514

// below: selectivity ratio requested for another compound
Exercise: Report selectivity ratio, nothing else, for this compound: CC(C)CCc1sc(NC(=O)c2cc(NC(=O)c3cc(/C=C/c4ccc([N+](=O)[O-])cc4)cn3C)cn2C)nc1C(=O)NCCCN(C)C
Solution: > 14

###

# Tested on: HEK293
# Assay remarks: Cytotoxicity against HEK293 cells by alamar blue assay
# Type: cell-based
# Run parameters: Homo sapiens
Measurement kind: IC50 (µM)
Your answer is read as µM, so omit the unit and give the number.

CCc1nc(N)nc(N)c1-c1ccc(Cl)cc1 [PYRIMETHAMINE]; 8.07

// below: IC50 requested for another molecule
Exercise: Write down the reported IC50 (system: HEK293) of COc1cccc(/C=C/c2cccc(C(=O)Nc3cc(C(=O)Nc4nc(C(=O)NCCCN(C)C)c(CCC(C)C)s4)n(C)c3)c2)c1
Solution: 5.8

###

# Assay remarks: Cytotoxicity against HEK293 cells at 20 uM by alamar blue assay
# Assay type: cell-based
# Run parameters: human, HEK293 cells; read-out: INH
Item-by-item account of cytotoxicity at 20 µM

Below, each entry is followed by its recorded cytotoxicity at 20 µM result.
COc1cccc(/C=C/c2ccc(C(=O)Nc3cc(C(=O)Nc4nc(C(=O)NCCCN(C)C)c(CCC(C)C)s4)n(C)c3)cc2)c1; 86%
Cn1cc(NC(=O)c2cc(NC(=O)c3ccc(/C=C/c4ccncc4)cc3)cn2C)cc1C(=O)NCCN1CCOCC1; 63%
CC(C)CCc1sc(NC(=O)c2cc(NC(=O)c3cc(/C=C/c4ccc([N+](=O)[O-])cc4)cn3C)cn2C)nc1C(=O)NCCCN(C)C; 60%

Exercise: Report cytotoxicity at 20 µM, nothing else, for this compound: CC(C)CCc1sc(NC(=O)c2cc(NC(=O)c3cc(/C=C/c4ccc([N+](=O)[O-])cc4)cn3C)cn2C)nc1C(=O)NCCN1CCOCC1
Solution: 54%

###

# Assay remarks: Therapeutic ratio of IC50 for HEK293 cells to IC50 for Plasmodium falciparum 3D7
# Type: cell-based
# Run parameters: human, HEK293 cells versus Plasmodium falciparum 3D7; read-out: Ratio IC50
Item-by-item account of selectivity ratio

Cn1cc(NC(=O)c2cc(NC(=O)c3ccc(/C=C/c4ccncc4)cc3)cn2C)cc1C(=O)NCCN1CCOCC1; > 26
COc1cccc(/C=C/c2cccc(C(=O)Nc3cc(C(=O)Nc4nc(C(=O)NCCCN(C)C)c(CCC(C)C)s4)n(C)c3)c2)c1; 6.7
CC(C)c1sc(NC(=O)c2cc(NC(=O)c3cc(NC(=O)c4cc5ccccc5cn4)cn3C)cn2C)nc1C(=O)NCCN1CCOCC1; > 42
CC(C)CCc1sc(NC(=O)c2cc(NC(=O)c3ccc(/C=C/c4ccc5ccccc5c4)cc3)cn2C)nc1C(=O)NCCN1CCOCC1; > 50
COc1cccc(/C=C/c2ccc(C(=O)Nc3cc(C(=O)Nc4nc(C(=O)NCCCN(C)C)c(CCC(C)C)s4)n(C)c3)cc2)c1; > 36

Exercise: Report selectivity ratio, nothing else, for this compound: CC(C)CCc1sc(NC(=O)c2cc(NC(=O)c3cc(/C=C/c4ccc([N+](=O)[O-])cc4)cn3C)cn2C)nc1C(=O)NCCN1CCOCC1
Solution: > 60

Exercise: Report selectivity ratio, nothing else, for this compound: CCc1nc(N)nc(N)c1-c1ccc(Cl)cc1
Solution: 955

Provenance of the data: ChEMBL document CHEMBL3813603
